Ok so here's the combined literature set: IC50 for RAC-gamma serine/threonine-protein kinase (Homo sapiens, UniProt Q9Y243).

Here's what some known entries look like.
CN1C(=O)CCNc2nc(-c3ccc(C4(N)CCC4)cc3)c(-c3ccccc3)cc21 = > 10 µM
CN(C)C[C@H](Cc1cccc(F)c1)N1Cc2cc(-c3c(Cl)cnn3C)ccc2C1=O = > 5 µM
NC1(c2ccc(-c3nc4c(cc3-c3ccccc3)-n3c(nnc3-c3ccncc3)CO4)cc2)CCC1 = 1 to 10 µM
C#Cc1cccc(C[C@@H](CN)N2Cc3cc(-c4c(Cl)cnn4C)ccc3C2=O)c1 = < 0.5 µM
Cn1ncc(-c2nccs2)c1-c1ccc2c(c1)CN([C@H](CN)Cc1cccc(F)c1)C2=O = 0.5 to 5 µM
NC[C@H](Cc1ccc(Cl)cc1)NC(=O)c1cc2c(s1)CCCn1ncc(Cl)c1-2 = 0.069 µM
Cn1ncc(Cl)c1-c1cc2c(cn1)C(=O)N([C@H](CN)Cc1cccc(F)c1)C2 = < 0.5 µM
Cn1nccc1-c1ccc2c(c1)CN([C@H](CN)Cc1cccc(-c3ccsc3)c1)C2=O = 0.5 to 5 µM

Entry Clc1ccc(Nc2ccnc3[nH]ccc23)cc1 , RAC-gamma serine/threonine-protein kinase (Homo sapiens, UniProt Q9Y243) data, IC50 value: ≤ 10 µM

====

// cross-source set; read-out = IC50; system = RAC-gamma serine/threonine-protein kinase (Homo sapiens)

// IC50 (RAC-gamma serine/threonine-protein kinase (Homo sapiens)) for Cn1ncc(Br)c1-c1cnc2c(c1)CN([C@H](CN)Cc1cccc(F)c1)C2=O = < 500 nM

Sample Cn1ncc(Cl)c1-c1ccc2c(c1)CN([C@H](CN)Cc1ccccc1F)C2=O (stereo in doubt) , system: RAC-gamma serine/threonine-protein kinase (Homo sapiens). Its IC50 is < 500 nM

Per the reported RAC-gamma serine/threonine-protein kinase (Homo sapiens) data, Cn1ncc(COC2CCC2)c1-c1cc2c(cn1)C(=O)N([C@H](CN)Cc1cccc(F)c1)C2 has IC50 of < 500 nM

Reported IC50 (RAC-gamma serine/threonine-protein kinase (Homo sapiens)) for entry CCN(CC)C[C@H](Cc1cccc(F)c1)N1Cc2cc(-c3c(Cl)cnn3C)ccc2C1=O is 500 to 5000 nM

RAC-gamma serine/threonine-protein kinase (Homo sapiens) data for C(#Cc1ccnc2[nH]ccc12)c1ccccc1 ; its IC50: ≤ 10000 nM

Tested on RAC-gamma serine/threonine-protein kinase (Homo sapiens): CC1(C)Cc2nc(-c3ccc(C4(N)CCC4)cc3)c(-c3ccccc3)cc2-c2n[nH]cc21 . Observed IC50: > 10000 nM

Entry CCn1nccc1-c1ccc2c(c1)CN([C@H](CN)Cc1cc(F)cc(F)c1)C2=O , tested on RAC-gamma serine/threonine-protein kinase (Homo sapiens), has a reported IC50 of < 500 nM

Log: RAC-gamma serine/threonine-protein kinase (Homo sapiens), compound Cn1nccc1-c1ccc2c(c1)CN(C(CN)c1cccc(F)c1)C2=O (centres unmarked) , IC50 = 500 to 5000 nM

====

Note to self: these molecules have IC50 reported for RAC-gamma serine/threonine-protein kinase (Homo sapiens) in various publications.

Sample records with IC50:
Cn1ncc(Cl)c1-c1ccc2c(c1)CN([C@H](CN)Cc1cccc(C(F)(F)F)c1)C2=O (stereo in doubt) = < 500 nM
NC1(c2ccc(-c3nc4c(cc3-c3ccccc3)-n3c(nnc3C3CC3)CO4)cc2)CCC1 = 100 to 1000 nM
Cn1ncc(Br)c1-c1ccc2c(c1)CN([C@H](CN)Cc1cc(F)cc(F)c1)C2=O = < 500 nM
Cn1ncc(Cl)c1-c1ccc2c(c1)CN([C@H](CNC1CCOCC1)Cc1cccc(F)c1)C2=O = > 5000 nM
Clc1cccc(Nc2ccnc3[nH]ccc23)c1 = ≤ 10000 nM
Cn1cc(-c2cccc(C[C@@H](CN)N3Cc4cc(-c5c(Cl)cnn5C)ccc4C3=O)c2)cn1 = 500 to 5000 nM
NC[C@H](Cc1cccc(F)c1)NC(=O)c1cc2c(s1)CCCn1ncc(-c3ccccc3)c1-2 = 52 nM
NC[C@H](Cc1ccc(Cl)c(Cl)c1)NC(=O)c1cc2c(s1)CCCn1ncc(Cl)c1-2 = 44 nM

Item CC(C)NC[C@@H](C(=O)N1CCN(c2ncnc3c2N(C)C(=O)CN3)CC1)c1ccc(Cl)cc1 ; assay system RAC-gamma serine/threonine-protein kinase (Homo sapiens); IC50 reported as 212 nM

The reported IC50 value, RAC-gamma serine/threonine-protein kinase (Homo sapiens), for C[C@]1(O)C[C@@](N)(c2ccc(-c3nc4c(cc3-c3ccccc3)-n3c(nnc3C(F)F)CO4)cc2)C1 reads 100 to 1000 nM

GET /values?item= CC(C)NC[C@@H](C(=O)N1[C@@H]2CC[C@H]1CN(c1ncnc3c1[C@H](C)C[C@H]3F)C2)c1ccc(Cl)cc1 &system= RAC-gamma serine/threonine-protein kinase (Homo sapiens) returns IC50: 66 nM

====

pIC50: −log10 of the molar value.
Here's a roundup of pIC50 values tested on RAC-gamma serine/threonine-protein kinase (Homo sapiens, UniProt Q9Y243), taken from various published works.

# annotated cases, reported pIC50 shown
CCCOCc1cnn(C)c1-c1ccc2c(c1)CN([C@H](CN)Cc1cccc(F)c1)C2=O = > 6.30
CC(=O)Nc1cccc(-c2cnc3[nH]cc(C(=O)c4cccc(O)c4F)c3c2)c1 = ≥ 5.00
CO/N=C1\CCCc2nc(-c3ccc(C4(N)CCC4)cc3)c(-c3ccccc3)cc21 = < 5.00
Cn1ncc(Br)c1-c1ccc2c(c1)CN([C@H](CN)Cc1ccccc1)C2=O = > 6.30
CN1C(=O)COc2nc(-c3ccc(C4(N)CCC4)cc3)c(-c3cccs3)cc21 = 5.00 to 6.00

# pIC50 (molecule: Cc1c(O)cccc1C(=O)c1c[nH]c2ncc(-c3cccs3)cc12 ) is ≥ 5.00

====

// merged dataset of pIC50 values, system = RAC-gamma serine/threonine-protein kinase (Homo sapiens), multiple refs
pIC50: −log10 of the molar value.

CSCc1cnn(C)c1-c1ccc2c(c1)CN([C@H](CN)Cc1cccc(F)c1)C2=O = 5.30 to 6.30

Considering NC(=O)CN1CCOc2nc(-c3ccc(C4(N)CCC4)cc3)c(-c3ccccc3)cc21 , its pIC50 with RAC-gamma serine/threonine-protein kinase (Homo sapiens) was recorded as < 5.00

The recorded pIC50 with RAC-gamma serine/threonine-protein kinase (Homo sapiens) for Cn1cc(C(F)(F)F)c(-c2ccc(S(=O)(=O)NCc3c[nH]c4ncccc34)s2)n1 was ≥ 5.00

Reported RAC-gamma serine/threonine-protein kinase (Homo sapiens) pIC50 for item Cn1ncc(Cl)c1-c1ccc2c(n1)CN([C@H](CN)Cc1cccc(F)c1)C2=O was 5.30 to 6.30

Value sought: pIC50, system RAC-gamma serine/threonine-protein kinase (Homo sapiens), item CN(C)CC(c1ccccc1)N1Cc2cc(-c3c(Cl)cnn3C)ccc2C1=O (centres unmarked) . Result: < 5.30

Param item: CN1C(=O)COc2nc(-c3ccc(C4(N)CCC4)cc3)c(CC3CC3)cc21 ; param system: RAC-gamma serine/threonine-protein kinase (Homo sapiens); output pIC50: < 5.00

GET /values?item= CN1CCOc2nc(-c3ccc(C4(N)CCC4)cc3)c(-c3ccccc3)cc21 &system= RAC-gamma serine/threonine-protein kinase (Homo sapiens) returns pIC50: < 5.00

Let me check: CC(C)NC[C@@H](C(=O)N1CCN(c2ncnc3c2C(C)CC(=O)N3)CC1)c1ccc(Cl)cc1 (some centres unmarked) , system RAC-gamma serine/threonine-protein kinase (Homo sapiens), measured pIC50 is 8.80

====

The entries that follow carry pIC50 values tested on RAC-gamma serine/threonine-protein kinase (Homo sapiens), drawn from several published reports.
pIC50: −log10 of the molar value.

Record for C[C@]1(O)C[C@@](N)(c2ccc(-c3nc4c(cc3-c3ccccc3)N(CCF)C(=O)CO4)cc2)C1 under target or system RAC-gamma serine/threonine-protein kinase (Homo sapiens): pIC50 reported as 6.00 to 7.00

Field pIC50 (RAC-gamma serine/threonine-protein kinase (Homo sapiens)), entry Cn1ncc(Cl)c1-c1ccc2c(c1)CN([C@H](CN)Cc1cccc(-c3cncnc3)c1)C2=O : < 5.30

The reported RAC-gamma serine/threonine-protein kinase (Homo sapiens) pIC50 of NC1(c2ccc(-c3nc4c(cc3-c3ccccc3)N(CCO)C(=O)CO4)cc2)CCC1 is < 5.00

Measured pIC50 for this entry Cc1cnn2c1-c1cc(C(=O)N[C@H](CN)Cc3ccc(F)c(F)c3)sc1OCC2 on RAC-gamma serine/threonine-protein kinase (Homo sapiens): 6.91

====

pIC50: −log10 of the molar value.
RAC-gamma serine/threonine-protein kinase (Homo sapiens) pIC50, compiled from various sources.

Cn1cc(N2C(=O)COc3nc(-c4ccc(C5(N)CCC5)cc4)c(-c4ccccc4)cc32)cn1 = 5.00 to 6.00
Cn1ncc(Cl)c1-c1ccc2c(c1)CN([C@H](CNC1CCCC1)Cc1cccc(F)c1)C2=O = 5.30 to 6.30
Cc1c[nH]c2ncnc(N3C[C@H]4CC[C@@H](C3)N4C(=O)[C@H](CNC(C)C)c3ccc(Cl)cc3)c12 = 8.92

For the molecule CN1C(=O)COc2nc(-c3ccc(C4(N)CCC4)cc3)c(-c3ccsc3)cc21 , the measured pIC50 on RAC-gamma serine/threonine-protein kinase (Homo sapiens) was 5.00 to 6.00

The molecule Cn1nc2n(c1=O)-c1cc(-c3ccccc3)c(-c3ccc(C4(N)CCC4)cc3)nc1OC2 on RAC-gamma serine/threonine-protein kinase (Homo sapiens): pIC50 was 5.00 to 6.00

Tested system RAC-gamma serine/threonine-protein kinase (Homo sapiens); pIC50 recorded for Cn1ncc(F)c1-c1ccc2c(c1)CN([C@H](CN)Cc1cc(F)cc(F)c1)C2=O was > 6.30

// molecule N#CCN1C(=O)COc2nc(-c3ccc([C@]4(N)C[C@@H](O)C4)cc3)c(-c3ccccc3)cc21 , assay RAC-gamma serine/threonine-protein kinase (Homo sapiens), pIC50 value: < 5.00

# NC1(c2ccc(-c3nc4c(cc3-c3ccccc3)-c3n[nH]c(N5CCOCC5)c3CC4)cc2)CCC1 with RAC-gamma serine/threonine-protein kinase (Homo sapiens): pIC50 is 5.00 to 6.00
